tested.on: hCES1A (Homo sapiens, UniProt P23141)
Sequence (P23141 18-567): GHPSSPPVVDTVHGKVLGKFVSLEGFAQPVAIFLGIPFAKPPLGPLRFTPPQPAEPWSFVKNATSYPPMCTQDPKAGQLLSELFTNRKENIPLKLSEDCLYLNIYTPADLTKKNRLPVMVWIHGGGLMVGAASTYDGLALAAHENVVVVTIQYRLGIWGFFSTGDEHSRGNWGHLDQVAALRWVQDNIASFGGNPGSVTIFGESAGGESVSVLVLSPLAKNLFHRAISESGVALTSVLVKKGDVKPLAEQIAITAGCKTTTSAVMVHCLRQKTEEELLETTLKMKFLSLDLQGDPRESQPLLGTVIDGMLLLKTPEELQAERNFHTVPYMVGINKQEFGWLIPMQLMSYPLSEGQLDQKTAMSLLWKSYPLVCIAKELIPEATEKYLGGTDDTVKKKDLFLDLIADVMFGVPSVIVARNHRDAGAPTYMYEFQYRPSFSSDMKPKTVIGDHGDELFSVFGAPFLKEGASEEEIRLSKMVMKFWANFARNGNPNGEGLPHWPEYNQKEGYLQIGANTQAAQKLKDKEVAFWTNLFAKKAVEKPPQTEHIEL
method.description: Inhibition assay on hCES1A (bioluminogenic substrate NLMe)
Assay type: biochemical
condition.info: 33 min incubation; mean ± SD, n = 3; read-out: hCES1A IC50 33 min
recorded.endpoint: pIC50
Scale explanation: pIC50 corresponds to minus log10 of a concentration expressed in moles per litre.

1. Nc1ccc(C(=O)C(F)(F)F)cc1; 6.17

## Task Sample `O=C(c1ccc(Cl)cc1)C(F)(F)F` — what was its pIC50?
## Result 8.72

## Task Sample `O=C(c1ccc(Cl)cc1)C(F)F` — what was its pIC50?
## Result 6.99

## Task Sample `CCc1ccc(C(=O)C(F)(F)F)cc1` — what was its pIC50?
## Result 7.62

## Task Sample `O=C(c1cc(Cl)c(Cl)c(Cl)c1)C(F)(F)F` — what was its pIC50?
## Result 8.55

## Task Sample `O=C(c1ccccc1Br)C(F)(F)F` — what was its pIC50?
## Result 7.28

## Task Sample `O=C(CF)c1ccc(Cl)cc1` — what was its pIC50?
## Result 6.06

## Task Sample `O=C(c1cccc(Cl)c1)C(F)(F)F` — what was its pIC50?
## Result 8.60

## Task Sample `O=C(c1ccc(Cl)c(Cl)c1)C(F)(F)F` — what was its pIC50?
## Result 8.62

###

tested.on: UniProtKB P23141
method.description: Inhibition assay on hCES1A (bioluminogenic substrate NLMe)
Format: biochemical
condition.info: 3 min incubation; mean ± SD, n = 3; read-out: hCES1A IC50 3 min
recorded.endpoint: pIC50
Scale explanation: pIC50 corresponds to minus log10 of a concentration expressed in moles per litre.

// worked examples, pIC50 included
1) O=C(c1ccc(Cl)c(Cl)c1)C(F)(F)F [Compound F-4]; 8.00
2) O=C(c1ccc(Br)cc1)C(F)(F)F [Compound F-7]; 7.79
3) O=C(c1ccc(Cl)cc1)C(F)F [Compound F1-1]; 7.24
4) O=C(CF)c1ccc(Cl)cc1 [Compound F1-2]; 5.92

## Task Sample O=C(c1ccccc1Cl)C(F)(F)F [Compound F-3] — what was its pIC50?
## Result 7.94

## Task Sample O=C(c1ccc(I)cc1)C(F)(F)F [Compound F-9] — what was its pIC50?
## Result 7.42

## Task Sample O=C(c1ccccc1)C(F)(F)F [F, 2,2,2-trifluoroacetophenone] — what was its pIC50?
## Result 7.62

###

tested.on: hCES1A (Homo sapiens, UniProt P23141)
Sequence (P23141 18-567): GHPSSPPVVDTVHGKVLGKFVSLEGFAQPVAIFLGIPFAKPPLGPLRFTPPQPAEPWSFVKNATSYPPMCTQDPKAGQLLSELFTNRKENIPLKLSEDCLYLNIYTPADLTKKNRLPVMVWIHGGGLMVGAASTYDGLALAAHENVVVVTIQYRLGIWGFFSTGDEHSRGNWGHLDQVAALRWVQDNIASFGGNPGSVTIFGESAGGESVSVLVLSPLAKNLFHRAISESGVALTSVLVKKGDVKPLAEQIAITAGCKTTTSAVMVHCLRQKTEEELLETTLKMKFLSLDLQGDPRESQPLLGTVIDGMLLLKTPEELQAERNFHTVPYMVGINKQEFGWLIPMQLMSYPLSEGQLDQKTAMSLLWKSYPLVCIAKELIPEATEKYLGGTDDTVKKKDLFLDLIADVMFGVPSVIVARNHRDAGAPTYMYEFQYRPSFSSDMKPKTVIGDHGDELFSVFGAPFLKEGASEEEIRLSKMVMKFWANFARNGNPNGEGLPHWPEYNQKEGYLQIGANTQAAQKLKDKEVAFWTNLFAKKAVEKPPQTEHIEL
method.description: Inhibition assay on hCES1A (bioluminogenic substrate NLMe)
Assay type: biochemical
condition.info: ratio of IC50 at 3 min to IC50 at 33 min
recorded.endpoint: hCES1A IC50 Fold Increase

// worked examples, hCES1A IC50 Fold Increase included
1) O=C(c1cccc(Br)c1)C(F)(F)F; 10.0
2) O=C(c1ccc(Cl)cc1)C(F)(F)F; 7.6
3) O=C(c1ccc(F)cc1)C(F)(F)F; 2.8
4) O=C(c1ccccc1Br)C(F)(F)F; 0.2
5) O=C(CF)c1ccc(Cl)cc1; 1.4

Next up:
## Task Sample `O=C(c1ccc(Cl)cc1)C(F)F` — what was its hCES1A IC50 Fold Increase?
## Result 0.6

###

tested.on: UniProt:O00748
method.description: Inhibition assay on hCES2A (fluorescent substrate FD)
Assay type: biochemical
condition.info: 33 min incubation; mean ± SD, n = 3; read-out: hCES2A IC50 33 min
recorded.endpoint: IC50 (nM)
Please reply with the bare figure in nM and do not write the unit itself.

// worked examples, IC50 included
1) O=C(c1ccc(Cl)cc1)C(F)(F)F [Compound F-1]; 71.3
2) O=C(c1ccccc1Cl)C(F)(F)F [Compound F-3]; 85.6
3) O=C(c1cccc(Cl)c1)C(F)(F)F [Compound F-2]; 90

## Task Sample O=C(c1ccccc1)C(F)(F)F [F, 2,2,2-trifluoroacetophenone] — what was its IC50?
## Result 336

###

Each entry below carries its recorded IC50.
tested.on: hCES2A (Homo sapiens, UniProt O00748)
Sequence (O00748 27-559): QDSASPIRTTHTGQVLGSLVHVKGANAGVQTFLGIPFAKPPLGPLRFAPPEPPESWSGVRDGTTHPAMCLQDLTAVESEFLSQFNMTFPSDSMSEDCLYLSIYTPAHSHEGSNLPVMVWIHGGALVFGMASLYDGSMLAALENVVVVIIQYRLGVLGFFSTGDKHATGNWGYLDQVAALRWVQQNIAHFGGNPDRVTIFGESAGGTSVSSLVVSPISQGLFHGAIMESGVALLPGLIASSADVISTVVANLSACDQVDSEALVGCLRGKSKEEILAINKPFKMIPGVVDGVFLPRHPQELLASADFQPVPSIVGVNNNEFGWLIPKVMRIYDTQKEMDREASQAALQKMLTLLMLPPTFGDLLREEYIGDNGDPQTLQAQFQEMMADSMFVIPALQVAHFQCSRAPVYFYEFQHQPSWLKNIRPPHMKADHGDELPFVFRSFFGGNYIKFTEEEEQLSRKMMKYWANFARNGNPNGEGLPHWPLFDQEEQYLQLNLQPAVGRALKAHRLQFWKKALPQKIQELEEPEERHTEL
method.description: Inhibition assay on hCES2A (fluorescent substrate FD)
Format: biochemical
condition.info: 3 min incubation; mean ± SD, n = 3; read-out: hCES2A IC50 3 min
Please reply with the bare figure in µM and do not write the unit itself.

// worked examples, IC50 included
1) O=C(c1ccccc1)C(F)(F)F; 0.16
2) O=C(c1ccccc1Cl)C(F)(F)F; 0.102

## Task Sample `O=C(c1cccc(Cl)c1)C(F)(F)F` — what was its IC50?
## Result 0.0768

## Task Sample `O=C(c1ccc(Cl)cc1)C(F)(F)F` — what was its IC50?
## Result 0.0591

###

tested.on: hCES1A (Homo sapiens, UniProt P23141)
method.description: Inhibition assay on hCES1A (bioluminogenic substrate NLMe)
Assay type: biochemical
condition.info: 33 min incubation; mean ± SD, n = 3; read-out: hCES1A IC50 33 min
recorded.endpoint: IC50 (nM)
Please reply with the bare figure in nM and do not write the unit itself.

1) COc1ccc(C(=O)C(F)(F)F)cc1; 29.7
2) O=C(c1ccccc1Cl)C(F)(F)F; 2.3
3) O=C(c1ccc(F)cc1)C(F)(F)F; 603
4) O=C(c1ccc(I)cc1)C(F)(F)F; 6.2
5) O=C(c1cccc(Br)c1)C(F)(F)F; 1.7

Next up:
## Task Sample `O=C(c1ccc(Br)cc1)C(F)(F)F` — what was its IC50?
## Result 2.1

Recorded values, source paper PMC11649397.
